target: GFP-tagged Plasmepsin V (PmV-GFP), P. falciparum clone DC6 (Plasmodium falciparum); experiment: 3 uM HRPII-PExEl substrate
Sequence (Q8I6Z5 whole entry): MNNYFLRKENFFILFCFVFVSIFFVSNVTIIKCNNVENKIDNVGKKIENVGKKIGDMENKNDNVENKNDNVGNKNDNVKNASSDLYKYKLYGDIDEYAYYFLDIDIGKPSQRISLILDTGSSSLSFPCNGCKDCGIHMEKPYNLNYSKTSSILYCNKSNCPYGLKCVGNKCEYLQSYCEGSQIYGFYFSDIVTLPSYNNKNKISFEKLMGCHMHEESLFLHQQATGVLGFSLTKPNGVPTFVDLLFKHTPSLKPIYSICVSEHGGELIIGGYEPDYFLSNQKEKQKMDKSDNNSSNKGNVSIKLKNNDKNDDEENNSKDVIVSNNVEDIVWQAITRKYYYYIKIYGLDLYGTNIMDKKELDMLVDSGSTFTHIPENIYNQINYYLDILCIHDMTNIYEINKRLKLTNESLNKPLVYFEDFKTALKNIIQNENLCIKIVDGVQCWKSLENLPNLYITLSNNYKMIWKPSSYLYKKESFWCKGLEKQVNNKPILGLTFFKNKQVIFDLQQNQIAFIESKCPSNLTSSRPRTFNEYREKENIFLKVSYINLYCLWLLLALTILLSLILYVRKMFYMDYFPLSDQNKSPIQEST
Ends that are not written are not given here.
property: IC50

Entry RLLYEA (not fully specified; also: HEA isostere replaces the Leu3-Tyr4 peptide bond) [Compound 7a] : reported IC50 = ?
1.38 nM
